# protocol-summary: Acute toxicity, LD 50 (oral route), mice
# assay-setup: mouse, in vivo
label 1 if LD50 is below 1000 mg/kg. label 0 if not; exact matches included in label 0.

Illustrative cases are given below, each with its answer.
molecule	class
CN(C)S(=O)(=O)c1ccc(C(=O)c2ccc3c(c2)CC(C(=O)O)C3)cc1 (stereo not drawn)	label 0
CCN(CC)CCNC(=O)C1Cc2ccc(C(=O)c3cccs3)cc2C1 (stereo not drawn)	label 1
O=C(c1ccoc1)c1ccc2c(c1)CC(C(=O)O)C2 (stereo not drawn)	label 0
CCN(CC)CCNC(=O)C1Cc2ccc(C(=O)c3ccccc3)cc2C1 (stereo not drawn)	label 0
Cc1ccc(C(=O)c2ccc3c(c2)CC(C(=O)O)C3)o1 (stereo not drawn)	label 0

Find out if reported LD50 for CS(=O)(=O)c1ccc(C(=O)c2ccc3c(c2)CC(C(=O)O)C3)cc1 (stereo not drawn) is less than 1000 mg/kg
label 0

Find out if reported LD50 for COC(=O)C1Cc2ccc(C(=O)c3ccco3)cc2C1 (stereo not drawn) [methyl 5-(2'-furoyl)-indan-2-carboxylate, Methyl 5-(2'-furoyl)-indan-2-carboxylate] is less than 1000 mg/kg
label 0

Find out if reported LD50 for COc1ccc(C(=O)c2ccc3c(c2)CC(C(=O)O)C3)cc1 (stereo not drawn) is less than 1000 mg/kg
label 1

Find out if reported LD50 for COC(=O)C1Cc2ccc(C(=O)c3ccc(N(C)C)cc3)cc2C1 (stereo not drawn) is less than 1000 mg/kg
label 0

====

# protocol-summary: Acute toxicity, LD 50 (oral route), mice
# assay-setup: mouse, in vivo
Readings of LD50 for the listed compounds
Number only, in mg/kg; omit the unit.

compound	unit-descriptor	LD50
CCN(CC)CCOC(=O)C1Cc2ccc(C(=O)c3ccco3)cc2C1 (stereo not drawn)	mg/kg	1200

Then there is this compound:
Entry under review: Cc1ccc(C(=O)c2ccc3c(c2)CC(C(=O)O)C3)s1 (stereo not drawn) . Reported LD50?
3000

====

# protocol-summary: Acute toxicity, LD 50 (oral route), mice
# assay-setup: mouse, in vivo
Where a name gives a salt, the structure may show the parent alone.
value-kind: LD50
Answer format: number, then unit.

Solved entries:
molecule	value-kind	recorded-value
O=C(c1ccccc1)c1ccc2c(c1)CC(C(=O)O)C2 (stereo not drawn)	LD50	2100 mg/kg
CCOC(=O)C1Cc2ccc(C(=O)c3ccc(NC(C)=O)c(Cl)c3)cc2C1 (stereo not drawn)	LD50	3200 mg/kg
CN(C)c1ccc(C(=O)c2ccc3c(c2)CC(C(=O)O)C3)cc1 (stereo not drawn)	LD50	960 mg/kg
O=C(c1ccc2c(c1)CC(C(=O)O)C2)c1cccs1 (stereo not drawn)	LD50	1200 mg/kg
Cc1ccsc1C(=O)c1ccc2c(c1)CC(C(=O)O)C2 (stereo not drawn)	LD50	1200 mg/kg
O=C(c1ccc2c(c1)CC(C(=O)O)C2)c1cc(Cl)c(Cl)s1 (stereo not drawn)	LD50	180 mg/kg

Entry under review: O=C(c1ccc2c(c1)CC(C(=O)O)C2)c1ccco1 (stereo not drawn) . Reported LD50?
1000 mg/kg

Entry under review: CCN(CC)CCNC(=O)C1Cc2ccc(C(=O)c3cc(Cl)ccc3Cl)cc2C1 (stereo not drawn) . Reported LD50?
720 mg/kg

Entry under review: CCN(CC)CCOC(=O)C1Cc2ccc(C(=O)c3cccs3)cc2C1 (stereo not drawn) [hydrochloride] . Reported LD50?
2160 mg/kg
